# Assay remarks: phase I single ascending dose study, plasma concentrations of ANAVEX 2-73 and metabolite ANAVEX 19-144
# Format: in vivo, human
# Study conditions: male, human, plasma, oral; footnote a; read-out: ANAVEX 2-73 Concentration, observed Cmax from the QTc analysis dataset
Experimental endpoint: Cmax (ng/mL)
A number alone suffices; assume ng/mL.

Value lookup for Cmax; key = CN(C)CC1CCOC1(c1ccccc1)c1ccccc1.Cl (stereo not shown) [ANAVEX 2-73] 46.2

* * *

# Assay remarks: phase 2a studies, highest observed Cmax and extrapolation to 200 mg dose
# Study conditions: human, in vivo, 50 mg; footnote b; Alzheimer's disease patients; paired with ANAVEX 2-73 value; read-out: ANAVEX 19-144 Concentration, highest observed Cmax in phase 2a studies
Experimental endpoint: Cmax (ng/mL)
Respond numerically; units are ng/mL and should not be typed.

Name the recorded Cmax for CNCC1CCOC1(c1ccccc1)c1ccccc1.Cl (stereo not shown) [ANAVEX 19-144] . 11.1

* * *

# Assay remarks: phase I single ascending dose study, plasma concentrations of ANAVEX 2-73 and metabolite ANAVEX 19-144
# Assay type: in vivo, human
# Study conditions: male, human, plasma; footnote a; after oral ANAVEX 2-73; read-out: ANAVEX 19-144 Concentration, observed Cmax from the QTc analysis dataset
# Source text: Seventeen subjects contributed ECG data to the analysis dataset. The study was randomized single dose escalating phase I first-in-human study designed to investigate the safety and tolerability, and pharmacokinetics of ascending oral doses of ANAVEX 2-73 in male healthy subjects. It was double-blind and placebo-controlled within each dosage step—a two cohort study with alternating single dose escalation performed in male healthy subjects. […]
Experimental endpoint: Cmax (µg/mL)
The response must be a number in µg/mL with no trailing unit.

What value of measured Cmax is listed for CNCC1CCOC1(c1ccccc1)c1ccccc1.Cl (stereo not shown) [ANAVEX 19-144] ? 0.024
